System: P. falciparum stage V gametocytes
Parameters: BacTiter-Glo ATP luminescence viability of purified stage V gametocytes in 384-well plates, per cent inhibition versus DMSO
test-parameters: 48 h, 5 µM; inhibitor
The whole screen tested about 13,000 compounds, of which about 3,200 (25%) showed an effect of 50% or more. Some of the results follow.
reported-endpoint: % Inhibition (%)
Give bare numbers, in %.

Study these solved cases before continuing.
CC(C)(C)NCCN(Cc1ccc(-c2ccc(C(F)(F)F)cc2)cc1)C(=O)Cn1c(CCc2cccc(F)c2F)nc(=O)c2ccccc21: 105.1
CCN(CC)CCN(Cc1ccc(-c2ccc(C#N)cc2)cc1)C(=O)Cn1c(CCc2cccc(F)c2F)nc(=O)c2ccccc21: 0.7472

What does the data say about its % Inhibition? Entry: "CCN(CC)CCN(CCCc1ccc(-c2ccc(C(F)(F)F)cc2)cc1)C(=O)Cn1c(CCc2cccc(F)c2F)nc(=O)c2ccccc21"
67.3
